experiment: chemical genetic growth profiling, strain panel (AID 1159580);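 note: tested at 20 µM; growth read once vehicle control cultures reached saturation at 30 °C; 1 = growth at the plate median or of vehicle wells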; conditions: S. cerevisiae deletion strains, growth OD, locus YDR101C, strain arx1
Out of some 5,500 compounds screened, about 2,000 (36%) were called active. Inconclusive results (about 18%) are left out. Cut-off read from the data, not from the text of the source: active = normalized growth mostly below about 0.91 (no sharp cut-off); inconclusive = no clear call, values can overlap the other calls; inactive = mostly above about 0.92. The list shows a part of the results.
Respond only with the outcome that fits, drawn from yes (active), no (inactive)

Q: Tell me the recorded outcome of this test for CC(C)(C)NCC(O)c1cc(Cl)c(N)c(Cl)c1 (configuration not stated) .
A: no

Q: Hi, do you know how CC/C(=C(/CC)c1ccc(O)cc1)c1ccc(O)cc1 came out in this test?
A: no

Q: Hello, I am checking results. What call was entered for NC(N)=NC(=O)c1nc(Cl)c(N2CCCCCC2)nc1N ?
A: no

Q: Outcome logged for NC(=O)c1ncn([C@@H]2O[C@H](CO)[C@@H](O)[C@H]2O)n1 in this assay:
A: no

Q: How did this test come out for CN1C(C)(C)CCCC1(C)C ?
A: no

Q: // outcome(item) with item = CN(C)c1nc(N)c(C(=O)N=C(N)N)nc1Cl
A: no

Q: In this assay, the call recorded for CC(=O)OC(C)C[N+](C)(C)C (configuration not stated) was what?
A: no

Q: I would be grateful if you could indicate the recorded call for CCC(N)C(O)c1ccc(O)c(O)c1 (configuration not stated) .
A: no

Q: Lab log entry: NC(=NCCC[C@H](N)C(=O)O)N[N+](=O)[O-] — outcome as called in the assay?
A: no

Q: Tell me the assay call for C[N+](C)(C)CC(O)CC(=O)O (configuration not stated) please.
A: no

Q: Dear colleague, could you share the recorded outcome for CCOC(=O)NC1=C(C2CC2)C(=O)C(NC(=O)OCC)=C(C2CC2)C1=O when you have a moment?
A: no

Q: Hi, sorry to bother you, what did the test record for COc1c2ccoc2cc2oc(=O)ccc12 ?
A: yes

Q: What was the test verdict on CN[C@@H]1C(O)[C@@H](O[C@@H]2[C@@H](O)[C@H](O[C@H]3OC(CN)=CC[C@H]3N)[C@@H](N)C[C@H]2N)OC[C@]1(C)O (some centres not stated) ?
A: no

Q: What is the recorded call for this compound in the test? COc1cc(OC)c2ccc(=O)oc2c1
A: no

Q: Dear colleague, could you share the recorded outcome for NC(N)=NC(=O)c1nc(Cl)c(N)nc1N when you have a moment?
A: no

Q: Recorded test call requested for CC(C1OC(C)(C)C(O)C1O)[C@@H]1CC[C@]2(C)C3=CCC4C(C)(C)C(=O)CC[C@]4(C)C3CC[C@@]12C (some centres not stated)
A: no

Q: Fill in: this test's call for CC(CC(O)C1OC1(C)C)[C@@H]1CCC2(C)C3=CCC4C(C)(C)C(=O)CCC4(C)C3CC[C@@]12C (some centres not stated) is ___
A: no

Q: Look up the recorded call for COc1c(C(C)C)oc2cc3oc(=O)ccc3cc12 in this test.
A: no

Q: Returns: the outcome recorded for CC1=CC(=O)C2=C(C)CC[C@@H]3[C@H](OC(=O)[C@H]3C)[C@@H]12 in this assay.
A: no

Q: What did the test return for Cc1ccccc1OCC(O)CO (configuration not stated) ?
A: no

Q: Hi team, can someone confirm the assay call for COC(=O)C1OC(=O)C2OC23C1(C)CCC1C2(C)C(OC(C)=O)CC(OC(C)=O)C(C)(C)C2CC(=O)C13C (configuration not stated) ?
A: no

Q: Please state the recorded outcome for this compound: CCN1C[C@]2(C)CC[C@H](OC)[C@]34C2[C@H](O)[C@]2(OCO[C@@]25C[C@H](OC)[C@H]2C[C@]3(O)C5[C@H]2O)C14
A: no

---

test: chemical genetic growth profiling, strain panel (AID 1159580);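 note: tested at 20 µM; growth read once vehicle control cultures reached saturation at 30 °C; 1 = growth at the plate median or of vehicle wells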; conditions: S. cerevisiae deletion strains, growth OD, locus YMR125W, strain sto1, stronger effect = lower value
Out of some 5,500 compounds screened, about 2,000 (36%) were called active. Inconclusive results (about 18%) are left out. Some of the results follow.
Please go through the items and note down their normalized growth.

Q: Using the record for C[C@]12C=CC(=O)C=C1CCC1C2[C@@H](O)C[C@@]2(C)C1CC[C@]2(O)C(=O)COP(=O)(O)O (stereo partly specified) , report its normalized growth.
A: 0.98 (inactive)

Q: What normalized growth value was documented for this compound, Cc1[nH]ccc2c1[nH]c1cc(=O)ccc12 ?
A: 0.986 (inactive)

Q: Record request: normalized growth value, item N#Cc1nn(-c2c(Cl)cc(C(F)(F)F)cc2Cl)c(N)c1S(=O)C(F)(F)F (stereo unspecified)
A: 1.03 (inactive)

Q: For COc1cccc2c(C)cc(=O)[nH]c12 , what is its reported normalized growth?
A: 0.959 (inactive)

Q: What value of normalized growth has been reported for the following compound? CCC1OC(=O)[C@H](C)C(=O)[C@H](C)[C@@H](OC2O[C@H](C)C[C@H](N(C)C)[C@H]2O)[C@](C)(OC)C2(CCCn3cnc(-c4cccnc4)c3)C[C@@H](C)C(=O)[C@H](C)[C@H]3N(C2)C(=O)O[C@]13C (stereo partly specified)
A: 1.01 (inactive)

Q: Look up normalized growth: CCc1cc(C(N)=S)ccn1
A: 1 (inactive)

---

experiment: chemical genetic growth profiling, strain panel (AID 1159580);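 note: tested at 20 µM; growth read once vehicle control cultures reached saturation at 30 °C; 1 = growth at the plate median or of vehicle wells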; settings: S. cerevisiae deletion strains, growth OD, locus YJL154C, strain vps35
About 2,000 (36%) of roughly 5,500 compounds were called active. About 18% were inconclusive and are not listed. No stated cut-off is given here; in the data, active means normalized growth mostly below about 0.91 (no sharp cut-off); inconclusive means no clear call, values can overlap the other calls; inactive means mostly above about 0.92. The list shows a part of the results. Where a SMILES comes first, the peptide text is derived from it.
Valid outcomes are listed here; reply with one: active, inactive

Q: Hi, sorry to bother you, what did the test record for C=C(C)[C@H]1COc2cc3oc(=O)ccc3cc2O1 ?
A: inactive

Q: What did the test return for O=C(Cc1cccs1)NC1C(=O)N2C(C(=O)[O-])=C(C[n+]3ccccc3)CSC12 (configuration not stated) ?
A: inactive

Q: // param item: O=c1ccc2cc(OC3OC(CO)C(O)C(O)C3O)c(O)cc2o1 (configuration not stated) ; yields the recorded call
A: inactive

Q: Hi team, can someone confirm the assay call for CC(CC(C(N)=O)(c1ccccc1)c1ccccc1)N(C)C (configuration not stated) ?
A: inactive

Q: Record lookup: outcome of this test for NC(=O)NCCCC(N)C(=O)O (configuration not stated) ?
A: inactive

Q: Recorded test call requested for COC(=O)[C@H](Cc1ccccc1)NC(=O)[C@@H](N)CC(=O)O (H-Asp-Phe-OMe)
A: inactive

Q: Hi, sorry to bother you, what did the test record for COC1=CC(=O)C(O)=C/C1=C\C=C\c1ccccc1 ?
A: active

Q: Assay result, entry COc1ccccc1/C=C\C(=O)O — outcome?
A: inactive

Q: How was OC1CC2CCCC(C1)N2Cc1ccccc1 (configuration not stated) classified in this test?
A: inactive

Q: Identify the outcome logged in this assay for the compound shown: COc1cccc2c(C)cc(=O)[nH]c12
A: inactive

Q: Per the records of this test, what outcome belongs to Cc1[nH]ccc2c1[nH]c1cc(=O)ccc12 ?
A: inactive

Q: // outcome(item) with item = CC(C)N(CCC(C(N)=O)(c1ccccc1)c1ccccn1)C(C)C (configuration not stated)
A: active

---

assay: chemical genetic growth profiling, strain panel (AID 1159580);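 note: tested at 20 µM; growth read once vehicle control cultures reached saturation at 30 °C; 1 = growth at the plate median or of vehicle wells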; details: S. cerevisiae deletion strains, growth OD, locus YMR205C, strain PFK2, stronger effect = lower value
The whole screen tested about 5,500 compounds, of which about 2,000 (36%) were called active. Inconclusive results (about 18%) are left out. The list shows a part of the results.
Provide the recorded normalized growth for the entries that follow.
Would you mind answering with just the numeric figure?

Q: I'd like to know its normalized growth. The molecule in question is CCc1cc(C(N)=S)ccn1
A: 1.07

Q: // query normalized growth value for entry COc1ccc(-c2cc(=O)c3c(O)cc(O[C@H]4O[C@H](CO[C@@H]5O[C@@H](C)[C@H](O)[C@@H](O)[C@H]5O)[C@@H](O)[C@H](O)[C@H]4O)cc3o2)cc1
A: 1

Q: Dear colleague, I am looking for the recorded normalized growth of the following molecule: CCCCCCCCCCCC1=C(O)C(=O)C=C(O)C1=O
A: 0.901

Q: Fill in: normalized growth of COc1ccccc1/C=C\C(=O)O is ___
A: 0.928

Q: Returns the measured normalized growth for the input molecule. Input: CCOC(=O)c1c(C)cc(OC)cc1O
A: 0.887

Q: Quick one: normalized growth for COc1ccc(-c2oc3cc(O[C@H]4O[C@H](CO)[C@@H](O)[C@H](O)[C@H]4O)c(OC)c(O)c3c(=O)c2OC)cc1O ?
A: 0.981

Q: Entry under review: O=c1c(O)c(-c2ccc(O)c(O)c2)oc2cc(O)cc(O)c12 . Reported normalized growth?
A: 0.929

Q: Which normalized growth value belongs to COC(=O)c1c(C)cc(OC)cc1O ?
A: 0.95

Q: What value of normalized growth has been reported for the following molecule? COC1=CC(=O)C(O)=C/C1=C\C=C\c1ccccc1
A: 0.088

Q: Endpoint output: normalized growth of CC[n+]1c(-c2ccccc2)c2cc(N)ccc2c2ccc(N)cc21 . Value?
A: 0.831

Q: // normalized growth lookup, key: COc1ccc(-c2cc(=O)c3c(O)cc(O[C@@H]4O[C@H](CO[C@H]5O[C@H](C)[C@@H](O)[C@H](O)[C@@H]5O)[C@@H](O)[C@H](O)[C@H]4O)cc3o2)cc1O
A: 1.03

Q: Requested read-out: normalized growth. Entry: CCC1OC(=O)[C@H](C)C(=O)[C@H](C)[C@@H](OC2O[C@H](C)C[C@H](N(C)C)[C@H]2O)[C@](C)(OC)C2(CCCn3cnc(-c4cccnc4)c3)C[C@@H](C)C(=O)[C@H](C)[C@H]3N(C2)C(=O)O[C@]13C (stereo partly drawn)
A: 0.996

Q: Using the record for COc1ccc2c(c1)CCC1C2CCC2(C)C1C[C@@H](O)C2O (stereo partly drawn) , report its normalized growth.
A: 0.964

Q: Return reported normalized growth; argument: COC1=CC(=O)C(C(=O)c2ccccc2)=CC1=O
A: 1

Q: Please give the measured normalized growth for this molecule: C[C@]12CCC3c4ccc(OS(=O)(=O)O)cc4CCC3C1CC[C@H]2O (stereo partly drawn)
A: 1.01

Q: # normalized growth lookup, item COc1ccc(-c2oc3c(CC=C(C)C)c(O[C@@H]4O[C@H](CO)[C@@H](O)[C@H](O)[C@H]4O)cc(O)c3c(=O)c2O[C@@H]2O[C@@H](C)[C@H](O)[C@@H](O)[C@H]2O)cc1
A: 1.04

Q: Which normalized growth is listed for COc1cc(OC)c2c(=O)c(O)c(-c3ccc(OC)c(OC)c3)oc2c1 ?
A: 0.696

Q: What measured normalized growth goes with C[C@]12CCC3c4ccc(O)cc4CCC3C1C[C@@H](O)[C@@H]2O (stereo partly drawn) ?
A: 1.04
